The following molecules are listed with their measured log10(Kb) values.
Biological target: EP1 receptor (Homo sapiens)
Sequence (P34995 whole entry): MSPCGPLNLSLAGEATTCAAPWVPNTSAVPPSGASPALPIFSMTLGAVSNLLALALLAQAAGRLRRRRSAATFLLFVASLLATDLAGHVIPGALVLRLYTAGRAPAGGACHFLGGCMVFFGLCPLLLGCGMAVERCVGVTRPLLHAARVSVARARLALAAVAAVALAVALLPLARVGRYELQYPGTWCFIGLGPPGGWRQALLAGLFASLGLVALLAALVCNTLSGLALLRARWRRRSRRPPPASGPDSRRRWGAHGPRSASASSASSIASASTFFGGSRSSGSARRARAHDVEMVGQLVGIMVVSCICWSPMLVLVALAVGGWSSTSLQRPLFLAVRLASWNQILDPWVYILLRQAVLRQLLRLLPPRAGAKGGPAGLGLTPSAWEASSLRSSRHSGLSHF
Test: Prostanoid receptor antagonism (FLIPR), EP1
Format: cell-based
Settings: Table 2
parameter_measured: log10(Kb) (log10 of the value in nM)

molecule | log10(Kb)
COc1ccc(CCC(=O)NS(=O)(=O)CCCF)c(CN2CCC[C@H]2c2nc(C(=O)NCCCCC3CCCCC3)co2)c1 [Example 12h] | 2.92
COc1ccc(CCC(=O)NS(=O)(=O)C(C)C)c(CN2CCC[C@H]2c2nc(C(=O)NCCCCC3CCCCC3)co2)c1 [Example 12i] | 3.28
CCS(=O)(=O)NC(=O)CCc1ccc(OC)cc1CN1CCC[C@H]1c1nc(C(=O)NCCCCC2CCCCC2)co1 [Example 12l] | 2.26
COc1ccc(CCC(=O)NS(=O)(=O)N(C)C)c(CN2CCC[C@H]2c2nc(C(=O)NCCCCC3CCCCC3)co2)c1 [Example 12k] | 3.49
COc1ccc(CCC(=O)NS(=O)(=O)c2ccc(Cl)s2)c(CN2CCC[C@H]2c2nc(C(=O)NCCCCC3CCCCC3)co2)c1 [Example 12j] | 2.38

----------
Molecular target: DP receptor (Homo sapiens, UniProt Q13258)
Sequence (Q13258 whole entry): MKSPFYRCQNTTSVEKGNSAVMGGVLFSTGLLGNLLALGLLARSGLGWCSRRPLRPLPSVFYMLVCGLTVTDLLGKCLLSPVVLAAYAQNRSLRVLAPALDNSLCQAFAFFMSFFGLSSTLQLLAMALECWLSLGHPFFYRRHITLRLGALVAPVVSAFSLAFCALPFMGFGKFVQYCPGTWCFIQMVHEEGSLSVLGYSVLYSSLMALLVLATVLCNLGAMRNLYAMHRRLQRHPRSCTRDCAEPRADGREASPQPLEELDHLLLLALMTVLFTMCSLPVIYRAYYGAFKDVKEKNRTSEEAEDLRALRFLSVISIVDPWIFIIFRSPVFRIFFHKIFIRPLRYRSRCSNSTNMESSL
Assay: Prostanoid receptor antagonism (FLIPR), DP
Format: cell-based
Settings: Table 1
parameter_measured: Kb

compound | observed_measurement
CCCCCCCCNC(=O)c1coc([C@@H]2CCCN2Cc2cc(OC)ccc2CCC(=O)NS(=O)(=O)C(F)(F)F)n1 [Example 12f] | < 1 nM
O=C(CCc1ccc(F)cc1CN1CCC[C@H]1c1nc(C(=O)NCCCCC2CCCCC2)co1)NS(=O)(=O)C(F)(F)F [Example 12a] | < 1 nM
O=C(CCc1ccc(Cl)cc1CN1CCC[C@H]1c1nc(C(=O)NCCCCC2CCCCC2)co1)NS(=O)(=O)C(F)(F)F [Example 12b] | < 1 nM
